test_protocol: Cytotoxicity against human MRC5 cells incubated for 48 hrs by MTT assay
Type: toxicity, cell-based
Mark criterion met only for IC50 at 48 h values smaller than 40 µM; exact matches and larger values are criterion not met.

{"molecule": "COP(=O)(OC)C(N[C@H](C)c1ccccc1)c1ccc(F)cc1F (some centres undefined)", "class": "criterion met"}
{"molecule": "COc1ccc([C@@H](C)NC(c2ccc(F)cc2)P(=O)(OC(C)C)OC(C)C)cc1 (some centres undefined)", "class": "criterion met"}
{"molecule": "COc1ccc([C@@H](C)NC(c2c(F)c(F)c(F)c(F)c2F)P(=O)(OC)OC)cc1 (some centres undefined)", "class": "criterion met"}
{"molecule": "COP(=O)(OC)C(N[C@H](C)c1ccccc1)c1c(F)c(F)c(F)c(F)c1F (some centres undefined)", "class": "criterion not met"}
{"molecule": "CCOP(=O)(OCC)C(N[C@H](C)c1ccc(OC)cc1)c1c(F)c(F)c(F)c(F)c1F (some centres undefined)", "class": "criterion met"}
{"molecule": "COc1ccc([C@@H](C)NC(c2ccccc2F)P(=O)(OC)OC)cc1 (some centres undefined)", "class": "criterion met"}
{"molecule": "CC(C)OP(=O)(OC(C)C)C(N[C@@H](C)C(C)(C)C)c1ccc(F)cc1F (some centres undefined)", "class": "criterion not met"}
{"molecule": "COP(=O)(OC)C(N[C@@H](C)C(C)(C)C)c1ccc(F)cc1F (some centres undefined)", "class": "criterion not met"}
{"molecule": "COP(=O)(OC)C(N[C@@H](C)C(C)(C)C)c1c(F)cc(F)cc1F (some centres undefined)", "class": "criterion met"}
{"molecule": "COc1ccc([C@@H](C)NC(c2ccc(F)cc2F)P(=O)(OC(C)C)OC(C)C)cc1 (some centres undefined)", "class": "criterion met"}
{"molecule": "COc1ccc([C@@H](C)NC(c2ccc(F)cc2F)P(=O)(OC)OC)cc1 (some centres undefined)", "class": "criterion met"}
{"molecule": "COP(=O)(OC)C(N[C@@H](C)C(C)(C)C)c1ccc(F)cc1 (some centres undefined)", "class": "criterion not met"}
{"molecule": "COc1ccc([C@@H](C)NC(c2c(F)cc(F)cc2F)P(=O)(OC)OC)cc1 (some centres undefined)", "class": "criterion met"}
{"molecule": "CCOP(=O)(OCC)C(N[C@@H](C)C(C)(C)C)c1c(F)cc(F)cc1F (some centres undefined)", "class": "criterion met"}

---

Measured pIC50, listed per entry for reference.
System: OVCAR-3
test_protocol: Cytotoxicity against human OVCAR-3 cells incubated for 48 hrs by MTT assay
Assay type: functional, cell-based
experimental_parameters: OVCAR-3, 48 h
pIC50: −log10 of the molar value.
reported_endpoint: pIC50

{"compound": "CCOP(=O)(OCC)C(N[C@@H](C)C(C)(C)C)c1ccc(F)cc1F (some centres undefined)", "measured_on": "OVCAR-3", "reported_endpoint": "pIC50", "prefix_operator": "=", "quantitative_readout": 4.32}
{"compound": "COP(=O)(OC)C(N[C@H](C)c1ccccc1)c1c(F)c(F)c(F)c(F)c1F (some centres undefined)", "measured_on": "OVCAR-3", "reported_endpoint": "pIC50", "prefix_operator": "=", "quantitative_readout": 4.88}
{"compound": "COc1ccc([C@@H](C)NC(c2ccc(F)cc2)P(=O)(OC(C)C)OC(C)C)cc1 (some centres undefined)", "measured_on": "OVCAR-3", "reported_endpoint": "pIC50", "prefix_operator": "=", "quantitative_readout": 4.35}
{"compound": "COc1ccc([C@@H](C)NC(c2c(F)cc(F)cc2F)P(=O)(OC)OC)cc1 (some centres undefined)", "measured_on": "OVCAR-3", "reported_endpoint": "pIC50", "prefix_operator": "=", "quantitative_readout": 4.10}
{"compound": "COc1ccc([C@@H](C)NC(c2ccc(F)cc2F)P(=O)(OC)OC)cc1 (some centres undefined)", "measured_on": "OVCAR-3", "reported_endpoint": "pIC50", "prefix_operator": "=", "quantitative_readout": 4.00}
{"compound": "COc1ccc([C@@H](C)NC(c2c(F)c(F)c(F)c(F)c2F)P(=O)(OC)OC)cc1 (some centres undefined)", "measured_on": "OVCAR-3", "reported_endpoint": "pIC50", "prefix_operator": "=", "quantitative_readout": 4.86}
{"compound": "CCOP(=O)(OCC)C(N[C@H](C)c1ccccc1)c1ccc(F)cc1F (some centres undefined)", "measured_on": "OVCAR-3", "reported_endpoint": "pIC50", "prefix_operator": "=", "quantitative_readout": 5.25}
{"compound": "CCOP(=O)(OCC)C(N[C@H](C)c1ccc(OC)cc1)c1c(F)c(F)c(F)c(F)c1F (some centres undefined)", "measured_on": "OVCAR-3", "reported_endpoint": "pIC50", "prefix_operator": "<", "quantitative_readout": 3.30}
{"compound": "COP(=O)(OC)C(N[C@@H](C)C(C)(C)C)c1ccc(F)cc1 (some centres undefined)", "measured_on": "OVCAR-3", "reported_endpoint": "pIC50", "prefix_operator": "=", "quantitative_readout": 4.09}
{"compound": "COP(=O)(OC)C(N[C@@H](C)C(C)(C)C)c1c(F)cc(F)cc1F (some centres undefined)", "measured_on": "OVCAR-3", "reported_endpoint": "pIC50", "prefix_operator": "=", "quantitative_readout": 4.86}
{"compound": "CC(C)OP(=O)(OC(C)C)C(N[C@@H](C)C(C)(C)C)c1ccc(F)cc1F (some centres undefined)", "measured_on": "OVCAR-3", "reported_endpoint": "pIC50", "prefix_operator": "=", "quantitative_readout": 3.71}
{"compound": "CCOP(=O)(OCC)C(N[C@@H](C)C(C)(C)C)c1ccc(F)cc1 (some centres undefined)", "measured_on": "OVCAR-3", "reported_endpoint": "pIC50", "prefix_operator": "=", "quantitative_readout": 4.15}
{"compound": "COP(=O)(OC)C(NC(C)C(C)(C)C)c1ccc(F)cc1 (racemic)", "measured_on": "OVCAR-3", "reported_endpoint": "pIC50", "prefix_operator": "=", "quantitative_readout": 3.98}
{"compound": "COP(=O)(OC)C(N[C@@H](C)C(C)(C)C)c1ccccc1F (some centres undefined)", "measured_on": "OVCAR-3", "reported_endpoint": "pIC50", "prefix_operator": "=", "quantitative_readout": 4.29}

---

Tested on: Caco-2
test_protocol: Cytotoxicity against human Caco-2 cells incubated for 48 hrs by MTT assay
Format: functional, cell-based
experimental_parameters: Caco-2, 48 h
pIC50: −log10 of the molar value.
pIC50 of 5 or higher: condition met. Under 5: condition not met.

{"compound": "CCOP(=O)(OCC)C(N[C@@H](C)C(C)(C)C)c1ccc(F)cc1F (some centres not stated)", "class": "condition not met"}
{"compound": "COc1ccc([C@@H](C)NC(c2c(F)cc(F)cc2F)P(=O)(OC)OC)cc1 (some centres not stated)", "class": "condition not met"}
{"compound": "CCOP(=O)(OCC)C(N[C@@H](C)C(C)(C)C)c1ccc(F)cc1 (some centres not stated)", "class": "condition not met"}
{"compound": "COP(=O)(OC)C(N[C@@H](C)C(C)(C)C)c1ccc(F)cc1 (some centres not stated)", "class": "condition not met"}
{"compound": "CCOP(=O)(OCC)C(N[C@H](C)c1ccc(OC)cc1)c1ccc(F)cc1F (some centres not stated)", "class": "condition not met"}
{"compound": "COc1ccc([C@@H](C)NC(c2ccc(F)cc2F)P(=O)(OC)OC)cc1 (some centres not stated)", "class": "condition not met"}
{"compound": "CCOP(=O)(OCC)C(N[C@@H](C)C(C)(C)C)c1c(F)cc(F)cc1F (some centres not stated)", "class": "condition met"}
{"compound": "COc1ccc([C@@H](C)NC(c2ccc(F)cc2)P(=O)(OC(C)C)OC(C)C)cc1 (some centres not stated)", "class": "condition met"}
{"compound": "CCOP(=O)(OCC)C(N[C@H](C)c1ccc(OC)cc1)c1c(F)c(F)c(F)c(F)c1F (some centres not stated)", "class": "condition met"}
{"compound": "CCOP(=O)(OCC)C(N[C@H](C)c1ccccc1)c1ccc(F)cc1F (some centres not stated)", "class": "condition met"}
{"compound": "COc1ccc([C@@H](C)NC(c2c(F)c(F)c(F)c(F)c2F)P(=O)(OC)OC)cc1 (some centres not stated)", "class": "condition met"}

Provenance of the data: ChEMBL document CHEMBL6074679
